# studySystem: T1, Human CD137 ECD (human)
# T1 construct: also called 4-1BB
# T1 sequence (chain, as listed by the source limits assumed): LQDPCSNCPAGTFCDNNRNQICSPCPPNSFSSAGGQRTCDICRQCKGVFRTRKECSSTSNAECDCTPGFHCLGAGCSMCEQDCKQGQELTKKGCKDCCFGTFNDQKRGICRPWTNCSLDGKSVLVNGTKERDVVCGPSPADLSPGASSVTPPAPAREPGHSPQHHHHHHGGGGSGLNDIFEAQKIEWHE
# testDetails: single mutant vs template dBBDu183H
We begin with a simple list: items and their reported fold change of affinity.
# number only, unit fold dropped from output

# binder, fold change of affinity [fold]
rows = [
    ("H183/L072 VH G52cW (antibody, name in Kabat numbering, V domains shown) VH: QVQLVESGGGLVQPGRSLRLSCAASGFTFSNAWMHWVRQAPGKGLEWVAQIKDKWNAYAAYYAPSVKGRFTISRDDSKNSIYLQMNSLKTEDTAVYYCHYVHYASASTVLPAFGVDAWGQGTTVTVSS VL: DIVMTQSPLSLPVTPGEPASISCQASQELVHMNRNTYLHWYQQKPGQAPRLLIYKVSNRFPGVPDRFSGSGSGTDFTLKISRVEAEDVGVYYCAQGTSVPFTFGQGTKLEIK", 2),
]

[in] Item H183/L072 VH A60Q (antibody, name in Kabat numbering, V domains shown) VH: QVQLVESGGGLVQPGRSLRLSCAASGFTFSNAWMHWVRQAPGKGLEWVAQIKDKGNAYAAYYQPSVKGRFTISRDDSKNSIYLQMNSLKTEDTAVYYCHYVHYASASTVLPAFGVDAWGQGTTVTVSS VL: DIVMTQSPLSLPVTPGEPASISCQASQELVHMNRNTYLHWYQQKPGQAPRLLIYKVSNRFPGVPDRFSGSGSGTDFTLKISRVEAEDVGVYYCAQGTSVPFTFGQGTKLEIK : provide fold change of affinity
[out] 1.1
